Origin of values: the supplement of paper PMC9112550

I'd be grateful if you could share measured shrunken log2 fold change for these entries.
# Tested on: Escherichia coli TOP10;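 note: peptides expressed intracellularly from a pBAD plasmid library in pooled LB shake-flask culture, induced with 0.3% L-arabinose, DNA abundance read by NGS, three biological replicates, DESeq2 with apeglm shrinkage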
# Test Description: shrunken log2 fold change of peptide-encoding DNA abundance (4.5 h post-induction vs induction); higher = less antimicrobial activity (less host growth inhibition)
# Test Settings: time post-induction: 4.5 h; library: site-saturation at positions 5, 18, 19, 20
Lab note: jot down the number only; don't add units.

Q: May I ask what shrunken log2 fold change has been recorded for `RRIRTRPPRLPRPRPRPFAAPRP` ?
Ans: 0.08

Q: And then `RRIRARPPRLPRPRPRPMLFPRP` , what is it?
Ans: 0.674

Q: Please do the same for `RRIRIRPPRLPRPRPRPIGAPRP` as well.
Ans: -0.0926

Q: Now the sequence `RRIRCRPPRLPRPRPRPKGYPRP`
Ans: -0.0908
